Literature compilation of IC50 measurements on IRAK1 (Homo sapiens).
Sequence (P51617 whole entry): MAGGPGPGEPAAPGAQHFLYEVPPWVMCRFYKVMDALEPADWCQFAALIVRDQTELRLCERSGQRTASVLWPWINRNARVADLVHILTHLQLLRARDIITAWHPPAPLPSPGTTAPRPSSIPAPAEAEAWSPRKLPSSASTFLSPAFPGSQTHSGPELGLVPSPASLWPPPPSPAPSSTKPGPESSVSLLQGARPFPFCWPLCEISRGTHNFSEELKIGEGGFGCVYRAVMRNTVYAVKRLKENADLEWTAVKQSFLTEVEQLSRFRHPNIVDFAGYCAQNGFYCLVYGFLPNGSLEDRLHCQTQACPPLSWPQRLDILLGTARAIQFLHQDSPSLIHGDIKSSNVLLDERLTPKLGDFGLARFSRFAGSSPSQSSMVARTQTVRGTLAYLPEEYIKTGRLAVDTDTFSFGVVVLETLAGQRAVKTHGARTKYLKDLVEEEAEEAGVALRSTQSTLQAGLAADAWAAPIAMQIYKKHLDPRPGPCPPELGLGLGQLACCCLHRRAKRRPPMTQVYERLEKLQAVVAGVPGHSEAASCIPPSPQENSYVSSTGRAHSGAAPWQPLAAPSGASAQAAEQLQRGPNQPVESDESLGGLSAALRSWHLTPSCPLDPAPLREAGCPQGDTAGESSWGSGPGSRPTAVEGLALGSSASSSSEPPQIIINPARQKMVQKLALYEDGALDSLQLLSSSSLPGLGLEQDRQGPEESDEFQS

# compound `Cc1nnc(-c2cnc(-c3cccc(-c4cnn(C)c4)c3)nc2N[C@H]2CC[C@@H](NS(C)(=O)=O)CC2)s1` ; its IC50 = 100 to 1000 nM

Reported IC50 of `Cn1cc(-c2cccc(-c3ncc(-c4cnn(C)c4)c(NCCN4CCS(=O)(=O)CC4)n3)c2)cn1` : 100 to 1000 nM

response.value for `Cc1nnc(-c2cnc(-c3cccc(-c4cnn(C)c4)c3)nc2NCC2CN(S(C)(=O)=O)C2)s1` (field: IC50) = 1000 to 5000 nM

So, Cn1cc(-c2cccc(-c3ncc(-c4ccn(C)n4)c(NC4CCC(=O)NC4)n3)c2)cn1 (stereo not shown) ? Its IC50 was 1000 to 5000 nM

Please fill in: IC50 reported for `C=CC(=O)N1C[C@@H](c2nc(-c3ccc(NC(=O)c4cccc(-c5ccn[nH]5)n4)cc3)no2)CC(F)(F)C1` = 17.6 nM

// sample `F[C@H]1CNC[C@@H]1Nc1cccc(-c2cnc3cc(Cl)cnn23)n1` , its IC50 was 3710 nM

In plain terms, `Cn1cc(-c2cccc(-c3ncc(-c4nnc(C(=O)N5CC[C@@H](O)C5)s4)c(NCC4CNC4)n3)c2)cn1` has a documented IC50 of > 5000 nM

----------
Study the reported pIC50 values for IRAK1 (Homo sapiens, UniProt P51617) given below; they originate from different publications.
pIC50: −log10 of the molar value.

Looking up `Cn1cc(-c2cccc(-c3ncc(-c4cnn(C)c4)c(N4CCC(NS(C)(=O)=O)CC4)n3)c2)cn1` , I see its pIC50 listed as 5.30 to 6.00

Sure, the documented pIC50 for Cn1cc(-c2cccc(-c3ncc(-c4cnn(C)c4)c(NC4CCCC4O)n3)c2)cn1 (stereo not shown) is 6.00 to 7.00

What the record says about `Cn1cc(-c2cccc(-c3ncc(-c4cnn(C)c4)c(NCC4(C)CCC4)n3)c2)cn1` : pIC50 is 6.00 to 7.00

// recorded pIC50 for `Cc1cc(Cl)cc2nc(-c3cc(-c4cnn(C5CCNCC5)c4)cnc3N)[nH]c12` : 5.00 to 7.00

Form field pIC50, entry `Cn1cc(-c2cccc(-c3ncc(-c4cnn(C)c4)c(N4CCC(O)CC4)n3)c2)cn1` : 6.00 to 7.00

So, `Cc1oncc1-c1ccc2ncc(-c3cccc(NC4CC5(CNC5)C4)n3)n2n1` ? Its pIC50 was 5.42

According to the records, this molecule `Cc1cc(-c2cccc(-c3cnn(C)c3)c2)ncc1-c1cnn(C2CCOCC2)c1` displays pIC50 of < 5.30

# pIC50 of CC(=O)N1CCC(CNc2nc(-c3cccc(-c4cnn(C)c4)c3)ncc2-c2cnn(C)c2)C(F)C1 (stereo not shown) = 5.30 to 6.00

Value of measured pIC50 for the entry `COc1cc2nc(-c3cc(-c4cnn(C5CCNCC5)c4)cnc3N)[nH]c2cc1OC` : 5.00 to 7.00

The molecule listed as `COc1cc2[nH]c(-c3cc(-c4cnn(CCN5CCOCC5)c4)cnc3N)nc2cc1F` shows pIC50 equal to 5.00 to 7.00

Lab note: `CC(=O)N1CCC(Nc2nc(-c3cccc(-c4cnn(C)c4)c3)ncc2-c2cnn(C)c2)CC1` gave pIC50 of 6.00 to 7.00

Recorded result, `O=C1CC[C@@H](COc2nccc3cc4c(=O)[nH]cc(CC(F)F)c4cc23)N1` , pIC50: 4.97

The reported value for `Cn1cc(-c2cccc(-c3ncc(-c4ccn(C)n4)c(NCCCN4CCOCC4)n3)c2)cn1` in terms of pIC50 is < 5.30

The molecule listed as `CN(C)C/C=C/C(=O)Nc1cccc(C(=O)Nc2ccc(Nc3nccc(/C(C#N)=C4\Nc5ccccc5S4)n3)cc2)c1` has a reported pIC50 of 7.42

Lookup result for `Cn1cc(-c2cccc(-c3ncc(-c4cnn(C)c4)c(NCCCCN)n3)c2)cn1` ; measured pIC50: < 5.30

The molecule listed as `COc1cc2[nH]c(-c3cc(-c4cnn(C5CCNCC5)c4)cnc3N)nc2cc1F` shows pIC50 equal to 7.00 to 9.00
